Please respond with reported IC50 for every item in the list.
# target.or.system: PI3Kγ (p110γ) Recombinant Human Protein (Homo sapiens (Human))
# procedure.details: PI3K-γ Scintillation Proximity Assay
# condition: read-out: PI3K-gamma SPA IC50
Structures can show the parent of a compound that is named as a salt.

Recorded results for 3 molecules are shown here.
[
  {
    "molecule": "COC(=O)C1CCN(C(=O)c2cncc(-c3ccnc(-c4nc(C)c(C)[nH]4)c3)c2)C1 (racemic) [Example 175, trifluoroacetate salt]",
    "target.or.system": "PI3Kγ (p110γ) Recombinant Human Protein (Homo sapiens (Human))",
    "value.kind": "IC50",
    "test.value": "≤ 50 nM"
  },
  {
    "molecule": "Cc1[nH]c(-c2cc(-c3cncc(N4CCOCC4)c3)ccn2)nc1C(=O)O [Example 257, Trifluoroacetate Salt]",
    "target.or.system": "PI3Kγ (p110γ) Recombinant Human Protein (Homo sapiens (Human))",
    "value.kind": "IC50",
    "test.value": "≤ 500 nM"
  },
  {
    "molecule": "O=C(Nc1cncc(-c2ccnc(-c3ncc(-c4ccccc4)[nH]3)c2)c1)C1CCCC1 [Example 138]",
    "target.or.system": "PI3Kγ (p110γ) Recombinant Human Protein (Homo sapiens (Human))",
    "value.kind": "IC50",
    "test.value": "≤ 500 nM"
  }
]

Shifting focus to the molecule that follows.
Please report the recorded IC50 for Cc1nc(-c2cc(-c3cncc(C(=O)N4CCCC(O)C4)c3)ccn2)[nH]c1C (racemic) [Example 154] .
≤ 50 nM

###

Please respond with reported pIC50 for every item in the list.
# target.or.system: PI3Kγ (p110γ) Recombinant Human Protein (Homo sapiens (Human), UniProt P48736)
# Sequence (P48736 whole entry): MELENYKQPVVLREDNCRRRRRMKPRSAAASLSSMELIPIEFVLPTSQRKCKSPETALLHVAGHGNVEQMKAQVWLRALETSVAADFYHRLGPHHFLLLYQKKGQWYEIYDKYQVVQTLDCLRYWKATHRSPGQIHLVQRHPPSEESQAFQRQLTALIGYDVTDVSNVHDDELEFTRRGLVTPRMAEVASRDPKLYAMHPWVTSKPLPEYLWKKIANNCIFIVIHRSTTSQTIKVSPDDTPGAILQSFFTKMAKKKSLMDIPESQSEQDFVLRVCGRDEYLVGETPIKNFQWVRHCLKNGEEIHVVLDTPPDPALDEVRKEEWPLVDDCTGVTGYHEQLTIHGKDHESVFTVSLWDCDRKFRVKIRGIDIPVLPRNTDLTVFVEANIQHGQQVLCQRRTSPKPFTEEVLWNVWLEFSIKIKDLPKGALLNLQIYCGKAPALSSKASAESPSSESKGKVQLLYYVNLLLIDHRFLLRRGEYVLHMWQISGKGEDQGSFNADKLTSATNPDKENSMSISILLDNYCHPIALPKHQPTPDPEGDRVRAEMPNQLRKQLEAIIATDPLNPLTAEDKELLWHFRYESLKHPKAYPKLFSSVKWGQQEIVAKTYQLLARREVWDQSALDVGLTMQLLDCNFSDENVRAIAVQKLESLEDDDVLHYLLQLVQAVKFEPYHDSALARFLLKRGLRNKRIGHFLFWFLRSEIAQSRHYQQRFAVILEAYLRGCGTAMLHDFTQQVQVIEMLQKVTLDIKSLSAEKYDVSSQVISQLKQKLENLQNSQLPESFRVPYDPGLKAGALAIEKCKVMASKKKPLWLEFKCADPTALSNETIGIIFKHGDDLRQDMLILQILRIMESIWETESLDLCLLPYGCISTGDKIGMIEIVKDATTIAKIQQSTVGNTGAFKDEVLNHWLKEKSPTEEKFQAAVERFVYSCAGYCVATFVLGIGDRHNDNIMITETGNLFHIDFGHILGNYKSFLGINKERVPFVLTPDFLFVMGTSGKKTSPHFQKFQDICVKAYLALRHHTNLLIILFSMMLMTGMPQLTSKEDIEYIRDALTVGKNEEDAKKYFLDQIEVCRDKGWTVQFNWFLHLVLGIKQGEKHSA
# procedure.details: PI3K-γ Scintillation Proximity Assay
# condition: read-out: PI3K-gamma SPA IC50
pIC50: −log10 of the molar value. Structures can show the parent of a compound that is named as a salt.

Recorded results for 3 compounds are shown here.
[
  {
    "compound": "Cc1nc(-c2cc(-c3cncc(S(C)(=O)=O)c3)ccn2)[nH]c1C1CC1 [Example 116, trifluoroacetate salt]",
    "test.value": "≥ 7.30"
  },
  {
    "compound": "CCCCCNc1ncc(-c2cc(-c3cncc(OC)c3)ccn2)[nH]1 [Example 63, trifluoroacetate salt]",
    "test.value": "≥ 6.30"
  },
  {
    "compound": "COc1cncc(-c2ccnc(-c3ncc(C)[nH]3)c2)c1",
    "test.value": "≥ 7.30"
  }
]

For every item below, please supply its pIC50.
1. NC(=O)CCn1cc(-c2ccnc(-c3ncc(-c4ccccc4)[nH]3)c2)cn1
2. O=S(=O)(c1ccccc1)N1CCC(c2c[nH]c(-c3cc(-c4cnn(Cc5ccc(Cl)cc5)c4)ccn3)n2)C1 (centres unmarked) [Example 305, trifluoroacetate salt]

1: < 6.30; 2: ≥ 6.30

For every item below, please supply its pIC50.
1. Cc1[nH]c(-c2cc(-c3cncc(N4CCOCC4)c3)ccn2)nc1CNC1CCCC1
2. Cc1[nH]c(-c2cc(-c3cncc(N4CCOCC4)c3)ccn2)nc1C(=O)NC1CCOCC1 [Example 269, trifluoroacetate salt]
3. Cc1nc(-c2cc(-c3cncc(C(=O)N4CC[C@H]5CCCC[C@@H]5C4)c3)ccn2)[nH]c1C [Example 187, trifluoroacetate salt]
4. Cc1nc(-c2cc(-c3cncc(C(=O)N4CC(O)C4)c3)ccn2)[nH]c1C [Example 152, trifluoroacetate salt]
5. CC(=O)Nc1cncc(-c2ccnc(-c3ncc(-c4ccccc4)[nH]3)c2)c1 [Example 17, trifluoroacetate salt]
6. CCc1[nH]c(-c2cc(-c3cncc(N4CCOCC4)c3)ccn2)nc1C
7. Cc1[nH]c(-c2cc(-c3cnn(Cc4ccc(Cl)cc4)c3)ccn2)nc1C#N [Example 297, Trifluoroacetate Salt]
8. COC[C@H](NC(=O)c1nc(-c2cc(-c3cncc(N4CCOCC4)c3)ccn2)[nH]c1C)c1ccccc1 [Example 275, trifluoroacetate salt]

1. < 6.30
2. ≥ 7.30
3. ≥ 7.30
4. ≥ 7.30
5. ≥ 7.30
6. ≥ 7.00
7. ≥ 7.30
8. ≥ 7.30

Please report the recorded pIC50 for CCOC(=O)CCn1cc(-c2ccnc(-c3ncc(-c4ccccc4)[nH]3)c2)cn1 [Example 55, trifluoroacetate salt] .
≥ 6.30
